Provide the reported herbicidal damage on transplanted rice of each item.
# Tested on: transplanted rice
# measurement_description: Herbicidal damage on transplanted paddy rice, paddy field pot test
# Type: in vivo, Oryza sativa L. cultivar: Nihonbare
# recorded_conditions: 125 g ai/ha applied onto water surface 5 days after transplanting; rated 3 weeks after treatment; 100% complete withering, 0% no damage
One number for each entry, in %.

Example results:
[
  {
    "molecule": "COc1cc(OC)nc(C(SC)c2cccc(Br)c2NS(=O)(=O)CC(F)(F)F)n1 (stereo not shown)",
    "units_text": "%",
    "herbicidal damage on transplanted rice": 0
  },
  {
    "molecule": "COc1cc(OC)nc(C(O)c2cccc(I)c2NS(=O)(=O)CC(F)(F)F)n1 (stereo not shown)",
    "units_text": "%",
    "herbicidal damage on transplanted rice": 20
  },
  {
    "molecule": "COc1cc(OC)nc(C(=O)c2cccc(Br)c2NS(=O)(=O)CC(F)(F)F)n1",
    "units_text": "%",
    "herbicidal damage on transplanted rice": 10
  }
]

# evaluate next
*Q* Return herbicidal damage on transplanted rice for the following molecule: COc1cc(OC)nc(C(O)c2cccc(Br)c2NS(=O)(=O)CC(F)(F)F)n1 (stereo not shown)
*A* 0

* * *

# Test system: directley seeded rice
# measurement_description: Herbicidal damage on directly seeded paddy rice, paddy field pot test
# Format: in vivo, Oryza sativa L. cultivar: Nihonbare
# recorded_conditions: 125 g ai/ha applied onto water surface; rated 3 weeks after treatment; 100% complete withering, 0% no damage
Provide the reported herbicidal damage on directley seeded rice of each item.
Answers are plain numbers, in %.

Example results:
[
  {
    "compound": "COc1cc(OC)nc(C(=O)c2cccc(Br)c2NS(=O)(=O)CC(F)(F)F)n1 [Compound 2]",
    "readout_number": 20
  },
  {
    "compound": "COc1cc(OC)nc(C(O)c2cccc(Br)c2NS(=O)(=O)CC(F)(F)F)n1 (stereo not shown) [Compound 1]",
    "readout_number": 10
  },
  {
    "compound": "COc1cc(OC)nc(C(SC)c2cccc(I)c2NS(=O)(=O)CC(F)(F)F)n1 (stereo not shown) [Compound 8]",
    "readout_number": 10
  }
]

# batch size: 4; output herbicidal damage on directley seeded rice per entry
1. COc1cc(OC)nc(C(O)c2cccc(I)c2NS(=O)(=O)CC(F)(F)F)n1 (stereo not shown) [Compound 5]
2. COc1cc(OC)nc(C(SC)c2cccc(Br)c2NS(=O)(=O)CC(F)(F)F)n1 (stereo not shown) [Compound 4]
3. COc1cc(Cl)nc(C(=O)c2cccc(Cl)c2N(C)S(=O)(=O)C(F)F)n1 [Compound 51]
4. COc1nc(OC)nc(C(=O)c2cccc(Br)c2N(C)S(=O)(=O)C(F)F)n1 [Compound 10]

*A*
[30, 10, 30, 30]

* * *

# System: transplanted rice
# measurement_description: Herbicidal damage on transplanted paddy rice, paddy field pot test
# Type: in vivo, Oryza sativa L. cultivar: Nihonbare
# recorded_conditions: 125 g ai/ha applied onto water surface 5 days after transplanting; rated 3 weeks after treatment; 100% complete withering, 0% no damage
Provide the reported herbicidal damage on transplanted rice of each item.
Numbers only, in %.

[
  {
    "molecule": "COc1cc(OC)nc(C(SC)c2cccc(I)c2NS(=O)(=O)CC(F)(F)F)n1 (stereo not drawn)",
    "units_text": "%",
    "herbicidal damage on transplanted rice": 0
  }
]

# batch size: 2; output herbicidal damage on transplanted rice per entry
1. COc1cc(Cl)nc(C(=O)c2cccc(Cl)c2N(C)S(=O)(=O)C(F)F)n1
2. COc1nc(OC)nc(C(=O)c2cccc(Br)c2N(C)S(=O)(=O)C(F)F)n1

*A*
1: 10; 2: 10

Data provenance: patent US20090062536A1
